TARGET: Calcium/calmodulin-dependent protein kinase type II subunit delta (Homo sapiens, UniProt Q13557)
Sequence (Q13557 whole entry): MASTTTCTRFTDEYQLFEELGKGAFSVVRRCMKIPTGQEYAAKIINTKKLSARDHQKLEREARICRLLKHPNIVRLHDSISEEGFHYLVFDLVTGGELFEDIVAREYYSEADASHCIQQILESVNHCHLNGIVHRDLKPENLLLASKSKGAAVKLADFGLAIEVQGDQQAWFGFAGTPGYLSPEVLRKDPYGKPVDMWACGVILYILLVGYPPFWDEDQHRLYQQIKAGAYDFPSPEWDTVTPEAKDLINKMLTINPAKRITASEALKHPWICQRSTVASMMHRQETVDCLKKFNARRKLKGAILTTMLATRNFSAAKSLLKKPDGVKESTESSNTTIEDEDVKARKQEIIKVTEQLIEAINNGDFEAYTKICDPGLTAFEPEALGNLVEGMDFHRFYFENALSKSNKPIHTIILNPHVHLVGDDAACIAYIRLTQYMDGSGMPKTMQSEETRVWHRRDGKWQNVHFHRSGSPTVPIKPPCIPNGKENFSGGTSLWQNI
TEST_DETAILS: Inhibition of CaMK2delta using 3 weeks old stock solution of compound
EXPERIMENTAL_ENDPOINT: IC50 (nM)
Report only the number, with the unit nM understood.

Challenge: Give the measured IC50 of "NCCCn1cc(C2=C(c3ccccc3)C(=O)NC2=O)c2ccccc21" .
Response given: 230

###

TARGET: Calcium/calmodulin-dependent protein kinase type II subunit delta (Homo sapiens, UniProt Q13557)
TEST_DETAILS: Inhibition of CaMK2delta
pIC50: −log10 of the molar value.
Label label 1 when pIC50 is at or above 7; anything below gets label 0.

Solved cases below.
* NCCc1cn(C2=C(c3c[nH]c4ccc(F)cc34)C(=O)NC2=O)c2ccccc12 | label 1
* CNCCc1cn(C2=C(c3c[nH]c4ccc(C(=O)NC)cc34)C(=O)NC2=O)c2ccccc12 | label 0
* CNCCc1cn(C2=C(c3c[nH]c4ccc(Cl)cc34)C(=O)NC2=O)c2ccccc12 | label 1
* CNCCc1cn(C2=C(c3c[nH]c4ccc(C(=O)OC)cc34)C(=O)NC2=O)c2ccccc12 | label 1
* NCCc1cn(C2=C(c3c[nH]c4ccc(Cl)cc34)C(=O)NC2=O)c2ccccc12 | label 1

Let's switch to this compound now.
Challenge: Would you say "CNCCc1cn(C2=C(c3c[nH]c4ccc(C(N)=O)cc34)C(=O)NC2=O)c2ccccc12" shows pIC50 at minimum 7?
Response given: label 0
